Here, each record is paired with measured % INHIB (inhibition of human microsomal triglyceride transfer protein mRNA levels) data.
System: human microsomal triglyceride transfer protein mRNA
Test: Antisense inhibition of human microsomal triglyceride transfer protein mRNA levels, quantitative real-time PCR; also: test concentration or dose not given here
Details: averages from two experiments
Strand notation (5' to 3'): a small letter for the sugar, then the base; units joined by * are phosphorothioate-linked, units joined directly phosphodiester-linked; [ ] holds rarer units or linkages, { } end groups; capitals alone tell only the bases. e = 2'-O-(2-methoxyethyl) (MOE); [5mC] = 5-methylcytosine; d = 2'-deoxy (DNA)
Value expressed in %; do not type the unit.

Known % INHIB (inhibition of human microsomal triglyceride transfer protein mRNA levels) results, listed for orientation:
SUBSTANCE	MEASURED_VALUE
144449 (eA*eT*eG*eT*eG*d[5mC]*d[5mC]*dT*dT*d[5mC]*dT*dA*d[5mC]*d[5mC]*dT*eT*eA*eA*eG*eG) [compound 144449]	35
144428 (eG*e[5mC]*eA*eG*e[5mC]*dT*dG*d[5mC]*dA*dG*d[5mC]*dA*dG*dT*dG*e[5mC]*eG*e[5mC]*eA*e[5mC]; antisense) [compound 144428]	19

// switching to the query substance
Value of measured % INHIB (inhibition of human microsomal triglyceride transfer protein mRNA levels) for the entry 144416 (eA*eG*eG*eT*eG*dG*dT*dG*dA*d[5mC]*dA*dG*dA*dT*dG*eT*eA*eG*e[5mC]*eT; antisense) [compound 144416] : 27

The origin of these recorded values is patent US20050181376A1.
